The measurements presented in this section are drawn from patent US12296012.

Provide the reported t1/2 of each item.
- TESTED ON: T1, human FLT3 (human, UniProt P36888 27-541, limits assumed)
- T1 construct: Soluble analyte hFLT3 in SPR; also called hFLT3; huFlt3
- T1 sequence: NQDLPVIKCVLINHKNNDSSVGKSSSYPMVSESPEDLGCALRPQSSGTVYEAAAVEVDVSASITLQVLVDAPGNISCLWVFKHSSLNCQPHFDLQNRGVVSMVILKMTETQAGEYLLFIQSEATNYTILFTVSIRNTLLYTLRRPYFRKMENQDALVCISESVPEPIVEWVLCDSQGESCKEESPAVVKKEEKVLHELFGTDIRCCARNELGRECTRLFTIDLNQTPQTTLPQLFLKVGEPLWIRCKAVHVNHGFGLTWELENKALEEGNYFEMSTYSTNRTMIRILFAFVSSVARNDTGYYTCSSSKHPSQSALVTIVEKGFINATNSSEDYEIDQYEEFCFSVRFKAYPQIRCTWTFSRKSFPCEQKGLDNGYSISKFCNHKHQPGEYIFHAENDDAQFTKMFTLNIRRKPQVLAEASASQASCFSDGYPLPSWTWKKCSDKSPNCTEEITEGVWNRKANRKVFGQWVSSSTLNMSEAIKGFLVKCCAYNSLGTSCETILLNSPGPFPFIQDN
- PROTOCOL DETAILS: SPR Biacore T200, 37C; scFv format
One number for each entry, in min.

INSERT INTO measurements (binder, quantitative_result) VALUES
  ('P1A5 (scFv format) (scFv) scFv: QVQLVQSGAEVKKPGSSVKVSCKASGGVFSRYALSWVRQAPGQGLEWMGGIIPMLGFANYAQKFQGRVTITADESTSTAYMELSSLRSEDTAVYYCATLDFGALDYWGQGTLVTVSSGGGGSGGGGSGGGGSEIVLTQSPGTLSLSPGERATLSCRASQAVDSSDLAWYQQKPGQAPRLLIYDAYTRPSGIPDRFSGSGSGTDFTLTISRLEPEDFAVYYCQQYGSSPLTFGGGTKLEIK', 40);

Moving on to another binder below.
Would you kindly share the measured t1/2 for P7H3 (scFv format) (scFv, not shown: a dimerising Fc or GST; small tags and cut ends) scFv: EVQLLESGGGLVQPGGSLRLSCAASGFTFSSYAMHWVRQAPGKGLEWVSAISGSGGSTYYADSVKGRFTISRDNSKNTLYLQMNSLRAEDTAVYYCARGTRWWWGDAFDHWGQGTLVTVSSGGGGSGGGGSGGGGSQSVLTQPPSVSVAPGKTARITCGGNNIGSKSVHWYQQKPGQAPVLVIYYDSDRPSGIPERFSGSNSGNTATLTISRVEAGDEADYYCQVWDSSTAWVFGGGTKLTVL ?
6.2
